Origin of the recorded values: PubChem BioAssay AID1963848

System: 379773-124-R-J2-PDC spheroid viability
test method notes: Anticancer human tumor 379773-124-R-J2-PDC patient-derived endometrial carcinoma cell line growth inhibition [POLQ]
run parameters: second compound 1 µM; first compound 1 µM; stronger effect = lower value; spheroids with HUVEC and MSC
# viability, T/C listing for each entry below

>  <molecule>
C=CC(=O)N1CCN(c2nc(=O)n(-c3c(C)ccnc3C(C)C)c3nc(-c4c(O)cccc4F)c(F)cc23)C(C)C1 (stereo unspecified) + COC1C(OC(N)=O)C(O)C(Oc2ccc3c(O)c(NC(=O)c4ccc(O)c(CC=C(C)C)c4)c(=O)oc3c2C)OC1(C)C

>  <viability, T/C (%)>
88.8

$$$$
>  <molecule>
CCCS(=O)(=O)Nc1ccc(F)c(C(=O)c2c[nH]c3ncc(-c4ccc(Cl)cc4)cc23)c1F + Cc1cccc(N(C)C(=O)C2C(O)CCN2c2nc(C)cc(C(F)(F)F)c2C#N)c1

>  <viability, T/C (%)>
86.5

$$$$
>  <molecule>
C#Cc1c(F)ccc2cc(O)cc(-c3ncc4c(N5CC6CCC(C5)N6)nc(OCC56CCCN5CC(F)C6)nc4c3F)c12 (stereo unspecified) + Nc1ccc(C#CCN(C(=O)Cc2ncc(C(F)(F)F)cc2C(F)(F)F)c2ccc(F)cc2)nn1

>  <viability, T/C (%)>
86.1

$$$$
>  <molecule>
COc1ccc([C@@H](O)c2cc(-c3ncnc4cc(N5CCOCC5)ccc34)c(F)cc2Cl)nn1 + COC1C(OC(N)=O)C(O)C(Oc2ccc3c(O)c(NC(=O)c4ccc(O)c(CC=C(C)C)c4)c(=O)oc3c2C)OC1(C)C

>  <viability, T/C (%)>
87.8

$$$$
>  <molecule>
O=C(c1cc(Cc2n[nH]c(=O)c3ccccc23)ccc1F)N1CCN(C(=O)C2CC2)CC1 + Cc1cccc(N(C)C(=O)C2C(O)CCN2c2nc(C)cc(C(F)(F)F)c2C#N)c1

>  <viability, T/C (%)>
83.5

$$$$
>  <molecule>
Nc1ccn(C2OC(CO)C(O)C2(F)F)c(=O)n1 (stereo unspecified) + COC1C(OC(N)=O)C(O)C(Oc2ccc3c(O)c(NC(=O)c4ccc(O)c(CC=C(C)C)c4)c(=O)oc3c2C)OC1(C)C

>  <viability, T/C (%)>
8.14

$$$$

----------
System: 379773-124-R-J2-PDC spheroid viability
test method notes: Anticancer human tumor 379773-124-R-J2-PDC cell line growth inhibition [POLQ];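 also: spheroids exposed to drugs for seven days before readout; percent viability relative to DMSO vehicle control taken as 100%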
run parameters: second compound 0.1 µM; first compound 0.316 µM; stronger effect = lower value; spheroids with HUVEC and MSC

>  <compound>
O=C(Nc1ccc(O)c(NS(=O)(=O)c2ccc(F)cc2)c1)c1ccc(-c2ccccc2)cc1 + Cc1cccc(N(C)C(=O)C2C(O)CCN2c2nc(C)cc(C(F)(F)F)c2C#N)c1

>  <viability, T/C [%]>
87.2

$$$$
>  <compound>
CC1COCCN1c1cc(C2(O)CC3CCC(C2)O3)c2cnn(-c3ccn[nH]3)c2n1 (stereo unspecified) + Cc1cccc(N(C)C(=O)C2C(O)CCN2c2nc(C)cc(C(F)(F)F)c2C#N)c1

>  <viability, T/C [%]>
15.9

$$$$
>  <compound>
CC(C)n1c(=O)n(C)c2cnc3cc(F)c(-c4ccc(OCCCN5CCCCC5)nc4)cc3c21 + Cc1cccc(N(C)C(=O)C2C(O)CCN2c2nc(C)cc(C(F)(F)F)c2C#N)c1

>  <viability, T/C [%]>
77.2

$$$$
>  <compound>
COc1cc(C2c3cc4c(cc3C(OC3OC5COC(C)OC5C(O)C3O)C3COC(=O)C23)OCO4)cc(OC)c1O (stereo unspecified) + COC1C(OC(N)=O)C(O)C(Oc2ccc3c(O)c(NC(=O)c4ccc(O)c(CC=C(C)C)c4)c(=O)oc3c2C)OC1(C)C

>  <viability, T/C [%]>
80

$$$$
>  <compound>
COc1ccc([C@@H](O)c2cc(-c3ncnc4cc(N5CCOCC5)ccc34)c(F)cc2Cl)nn1 + COC1C(OC(N)=O)C(O)C(Oc2ccc3c(O)c(NC(=O)c4ccc(O)c(CC=C(C)C)c4)c(=O)oc3c2C)OC1(C)C

>  <viability, T/C [%]>
91.5

$$$$
>  <compound>
CC1COCCN1c1cc(-c2ccnn2C)c2ccnc(-c3ccn[nH]3)c2n1 (stereo unspecified) + Nc1ccc(C#CCN(C(=O)Cc2ncc(C(F)(F)F)cc2C(F)(F)F)c2ccc(F)cc2)nn1

>  <viability, T/C [%]>
15.6

$$$$
>  <compound>
Nc1ccn(C2OC(CO)C(O)C2(F)F)c(=O)n1 (stereo unspecified) + Nc1ccc(C#CCN(C(=O)Cc2ncc(C(F)(F)F)cc2C(F)(F)F)c2ccc(F)cc2)nn1

>  <viability, T/C [%]>
11.3

$$$$
>  <compound>
CCCS(=O)(=O)Nc1ccc(F)c(C(=O)c2c[nH]c3ncc(-c4ccc(Cl)cc4)cc23)c1F + COC1C(OC(N)=O)C(O)C(Oc2ccc3c(O)c(NC(=O)c4ccc(O)c(CC=C(C)C)c4)c(=O)oc3c2C)OC1(C)C

>  <viability, T/C [%]>
88.3

$$$$
>  <compound>
C#Cc1c(F)ccc2cc(O)cc(-c3ncc4c(N5CC6CCC(C5)N6)nc(OCC56CCCN5CC(F)C6)nc4c3F)c12 (stereo unspecified) + Nc1ccc(C#CCN(C(=O)Cc2ncc(C(F)(F)F)cc2C(F)(F)F)c2ccc(F)cc2)nn1

>  <viability, T/C [%]>
88.6

$$$$
>  <compound>
O=c1[nH]cc(F)c(=O)[nH]1 + Nc1ccc(C#CCN(C(=O)Cc2ncc(C(F)(F)F)cc2C(F)(F)F)c2ccc(F)cc2)nn1

>  <viability, T/C [%]>
95.1

$$$$
>  <compound>
CCc1c2c(nc3ccc(O)cc13)-c1cc3c(c(=O)n1C2)COC(=O)[C@]3(O)CC + COC1C(OC(N)=O)C(O)C(Oc2ccc3c(O)c(NC(=O)c4ccc(O)c(CC=C(C)C)c4)c(=O)oc3c2C)OC1(C)C

>  <viability, T/C [%]>
0.57

$$$$

----------
Tested on: 379773-124-R-J2-PDC spheroid viability
test method notes: Anticancer human tumor 379773-124-R-J2-PDC cell line growth inhibition [POLQ];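 also: spheroids exposed to drugs for seven days before readout; percent viability relative to DMSO vehicle control taken as 100%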
run parameters: second compound 0.1 µM; first compound 0.316 µM; stronger effect = lower value; spheroids with HUVEC and MSC
value kind: viability, T/C (%)

>  <compound>
CCc1cc2c(N3CCc4c(cc(Cn5ccnc5)cc4-c4cn(C)nc4C(F)(F)F)C3=O)ccnc2c(OC)n1 + Nc1ccc(C#CCN(C(=O)Cc2ncc(C(F)(F)F)cc2C(F)(F)F)c2ccc(F)cc2)nn1

>  <measured target>
379773-124-R-J2-PDC spheroid viability

>  <experimental result>
61.2

$$$$
>  <compound>
O=c1[nH]cc(F)c(=O)[nH]1 + Cc1cccc(N(C)C(=O)C2C(O)CCN2c2nc(C)cc(C(F)(F)F)c2C#N)c1

>  <measured target>
379773-124-R-J2-PDC spheroid viability

>  <experimental result>
93.4

$$$$
>  <compound>
COc1cccc2c1C(=O)c1c(O)c3c(c(O)c1C2=O)CC(O)(C(=O)CO)CC3OC1CC(N)C(O)C(C)O1 (stereo unspecified) + COC1C(OC(N)=O)C(O)C(Oc2ccc3c(O)c(NC(=O)c4ccc(O)c(CC=C(C)C)c4)c(=O)oc3c2C)OC1(C)C

>  <measured target>
379773-124-R-J2-PDC spheroid viability

>  <experimental result>
6.63

$$$$
>  <compound>
O=C(c1cc(Cc2n[nH]c(=O)c3ccccc23)ccc1F)N1CCN(C(=O)C2CC2)CC1 + Cc1cccc(N(C)C(=O)C2C(O)CCN2c2nc(C)cc(C(F)(F)F)c2C#N)c1

>  <measured target>
379773-124-R-J2-PDC spheroid viability

>  <experimental result>
75.7

$$$$
>  <compound>
O=C(c1cc(Cc2n[nH]c(=O)c3ccccc23)ccc1F)N1CCN(C(=O)C2CC2)CC1 + COC1C(OC(N)=O)C(O)C(Oc2ccc3c(O)c(NC(=O)c4ccc(O)c(CC=C(C)C)c4)c(=O)oc3c2C)OC1(C)C

>  <measured target>
379773-124-R-J2-PDC spheroid viability

>  <experimental result>
86.9

$$$$
>  <compound>
CNCc1ccc(-c2[nH]c3cc(F)cc4c3c2CCNC4=O)cc1 + Nc1ccc(C#CCN(C(=O)Cc2ncc(C(F)(F)F)cc2C(F)(F)F)c2ccc(F)cc2)nn1

>  <measured target>
379773-124-R-J2-PDC spheroid viability

>  <experimental result>
87.5

$$$$
>  <compound>
COc1cc2cc(C(=O)CCC(=O)O)sc2cc1OC + Nc1ccc(C#CCN(C(=O)Cc2ncc(C(F)(F)F)cc2C(F)(F)F)c2ccc(F)cc2)nn1

>  <measured target>
379773-124-R-J2-PDC spheroid viability

>  <experimental result>
91.8

$$$$
>  <compound>
COc1cccc(OCCCN)c1-c1cc(Nc2cnc(C#N)cn2)n[nH]1 + Cc1cccc(N(C)C(=O)C2C(O)CCN2c2nc(C)cc(C(F)(F)F)c2C#N)c1

>  <measured target>
379773-124-R-J2-PDC spheroid viability

>  <experimental result>
2.36

$$$$
>  <compound>
O=C(Nc1ccc(O)c(NS(=O)(=O)c2ccc(F)cc2)c1)c1ccc(-c2ccccc2)cc1 + COC1C(OC(N)=O)C(O)C(Oc2ccc3c(O)c(NC(=O)c4ccc(O)c(CC=C(C)C)c4)c(=O)oc3c2C)OC1(C)C

>  <measured target>
379773-124-R-J2-PDC spheroid viability

>  <experimental result>
99.9

$$$$
>  <compound>
O=C(c1cc(Cc2n[nH]c(=O)c3ccccc23)ccc1F)N1CCN(C(=O)C2CC2)CC1 + Nc1ccc(C#CCN(C(=O)Cc2ncc(C(F)(F)F)cc2C(F)(F)F)c2ccc(F)cc2)nn1

>  <measured target>
379773-124-R-J2-PDC spheroid viability

>  <experimental result>
94

$$$$
>  <compound>
CC1COCCN1c1cc(C2(S(C)(=N)=O)CC2)nc(-c2ccnc3[nH]ccc23)n1 (stereo unspecified) + COC1C(OC(N)=O)C(O)C(Oc2ccc3c(O)c(NC(=O)c4ccc(O)c(CC=C(C)C)c4)c(=O)oc3c2C)OC1(C)C

>  <measured target>
379773-124-R-J2-PDC spheroid viability

>  <experimental result>
91.3

$$$$
